System: Wolbachia pipientis
protocol_details: Anti-Wolbachia Cell-Based Screen
Assay type: functional
Parameters: scale not given: in the data most compounds retested in dose-response had high values
assay_context: 5 µM
The campaign covered roughly 48,000 compounds. About 13,000 (27%) showed an effect of 50% or more. The list shows a part of the results.
# Percent Effect values compiled below
Just the number please, in %, no unit attached.

Query string: Which Percent Effect is listed for COc1cccc(CNc2nc(C)cc(C)n2)c1OC ?
Result string: 34.66

Query string: Which Percent Effect is listed for CN1[C@H]2CC[C@@H]1CN(C(=O)CCc1csc(N)n1)CC2 ?
Result string: 2.348

Query string: Which Percent Effect is listed for CCn1ccc(CN(C)C(=O)CSc2nnc(N)s2)n1 ?
Result string: 5.02

Query string: Which Percent Effect is listed for COCc1nnc2n1CCN(Cc1ccoc1)C2.O=C(O)C(F)(F)F ?
Result string: -3.646

Query string: Which Percent Effect is listed for CC(C)CNC(=O)c1ccc(NC(=O)NC2CC2)cc1Cl ?
Result string: -3.361

***
Query string: Which Percent Effect is listed for CN(C)CCOCc1nnc2n1CCN(Cc1ccoc1)CC2.O=C(O)C(F)(F)F.O=C(O)C(F)(F)F ?
Result string: 88.27

Query string: Which Percent Effect is listed for COc1ccc(CN(C)C(=O)CSc2nnc(N)s2)c(OC)c1OC ?
Result string: 2.435

Query string: Which Percent Effect is listed for CN(C)C1CCCN(C(=O)CCc2csc(N)n2)CC1 (configuration not stated) ?
Result string: -10.57
